These measurements were taken from paper PMC10127613.

- study_system: T1, Clr (Sinorhizobium meliloti, UniProt Q92SD2 1-234)
- T1 sequence: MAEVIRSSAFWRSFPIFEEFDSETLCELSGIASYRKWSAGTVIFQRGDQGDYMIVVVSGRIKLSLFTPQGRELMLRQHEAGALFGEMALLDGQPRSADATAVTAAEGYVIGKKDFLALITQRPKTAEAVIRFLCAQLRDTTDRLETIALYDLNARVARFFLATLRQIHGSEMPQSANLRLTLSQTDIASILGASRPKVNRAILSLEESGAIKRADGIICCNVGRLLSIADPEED
- protocol_description: ITC; 1 mM cAMP; EMSA: 2 mM HEPES pH 7.0, 30 mM NaCl, 50 mM KCl, 850 ng salmon sperm DNA, 1 ug BSA, 20 ng Cy3-DNA, 3 ug Clr in 10 uL, 1 mM cAMP, room temperature. ITC: 20 mM HEPES, 300 mM NaCl, 20 mM MgCl2, pH 7.0, 25 C
- measurement_conditions: protein: recombinant; tags: C-terminal His6 (pET36b, NdeI/XhoI); chain copies: 2; two copies of each strand; duplex arms joined by palindromic 5' overhang CTAG (4 nt) of the 19-mer, 1 nt 3' overhang G; nicked
pKd: −log10 of the molar value.

binder	pKd
CBS-DNA, two identical 19-mer/14-mer duplexes joined by palindromic CTAG sticky ends (nicked 33-nt) (dsDNA) DNA 1: CTAGGTAACATTACTCGCG DNA 2: GCGAGTAATGTTAC DNA 3: CTAGGTAACATTACTCGCG DNA 4: GCGAGTAATGTTAC	5.22
